The following are reported IC50 results, target or system porcine pancreatic elastase (Sus scrofa).
Where a SMILES comes first, the peptide text is derived from it. [ ]: non-standard residue; d: D form. Gly(octyl) = CCCCCCCC[C@H](N)C(=O)O
// return numeric value only (unit: µM, not printed)

Consider the reported IC50 for these compounds:
{"columns": ["COMPOUND", "IC50 (µM)"],
 "data": [
  ["CCCCCCCC[C@@H]1NC(=O)[C@H](Cc2ccc(O)cc2)NC(=O)[C@@H](C(C)C)NC(=O)[C@H]([C@@H](C)O)NC(=O)[C@H](CCCCN)NC(=O)[C@H](CCC(N)=O)NC(=O)[C@@H]2CCCN2C(=O)[C@@H]2CCCN2C(=O)[C@H]([C@@H](C)CC)NC(=O)[C@H](CO)NC(=O)[C@H](C)NC(=O)[C@H]([C@@H](C)O)NC(=O)[C@H](CCC(=O)O)NC1=O [Example 21] (cyclo([Gly(octyl)]ETASIPPQKT[dV]Y))", 10.6],
  ["CCCCCCCC[C@@H]1NC(=O)[C@H](CCC(=O)O)NC(=O)[C@@H](CCCCN)NC(=O)[C@H]([C@@H](C)O)NC(=O)[C@H](CCCCN)NC(=O)[C@H](CCC(N)=O)NC(=O)[C@@H]2CCCN2C(=O)[C@@H]2CCCN2C(=O)[C@H]([C@@H](C)CC)NC(=O)[C@H](CO)NC(=O)[C@H](C)NC(=O)[C@H]([C@@H](C)O)NC(=O)[C@H](CCC(=O)O)NC1=O [Example 29] (cyclo([Gly(octyl)]ETASIPPQKT[dK]E))", 12.8]
]}

// assay porcine pancreatic elastase (Sus scrofa), entry CCCCCCCC[C@@H]1NC(=O)[C@H](C)NC(=O)[C@@H](C)NC(=O)[C@H]([C@@H](C)O)NC(=O)[C@H](CCCCN)NC(=O)[C@H](CCC(N)=O)NC(=O)[C@@H]2CCCN2C(=O)[C@@H]2CCCN2C(=O)[C@H]([C@@H](C)CC)NC(=O)[C@H](CO)NC(=O)[C@H](C)NC(=O)[C@H]([C@@H](C)O)NC(=O)[C@H](CCC(=O)O)NC1=O [Example 20] (cyclo([Gly(octyl)]ETASIPPQKT[dA]A)) , IC50 value = 28.3

====

MEASURED_ON: UniProt P24158
Sequence (P24158 28-248): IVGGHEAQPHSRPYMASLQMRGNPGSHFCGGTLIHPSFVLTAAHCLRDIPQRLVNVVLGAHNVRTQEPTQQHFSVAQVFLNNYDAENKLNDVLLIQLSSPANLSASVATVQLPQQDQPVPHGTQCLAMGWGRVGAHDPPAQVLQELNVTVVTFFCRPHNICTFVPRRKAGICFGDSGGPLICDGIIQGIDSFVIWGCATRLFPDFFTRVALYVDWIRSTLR
Where a SMILES comes first, the peptide text is derived from it. [ ]: non-standard residue; d: D form. The star is where a group is joined. Gly(octyl) = CCCCCCCC[C@H](N)C(=O)O; N(CH2CH2COOH)Gly = O=C(O)CCNCC(=O)O; Aad = N[C@@H](CCCC(=O)O)C(=O)O; hSer = N[C@@H](CCO)C(=O)O; Octanoyl = CCCCCCCC(=O)*; Dab = NCC[C@H](N)C(=O)O; Dap = NC[C@H](N)C(=O)O; Nlys = NCCCCNCC(=O)O
MEASURED_PARAMETER: pIC50
Kindly note that pIC50 refers to -log10 of the concentration in mol/L and answer with the value alone.

Consider the reported pIC50 for these molecules:
{"columns": ["MOLECULE", "pIC50"],
 "data": [
  ["CCCCCCCC[C@@H]1NC(=O)[C@H](CCCCN)NC(=O)[C@@H](Cc2ccc(O)cc2)NC(=O)[C@H]([C@@H](C)O)NC(=O)[C@H](CCCCN)NC(=O)[C@H](CCC(N)=O)NC(=O)[C@@H]2CCCN2C(=O)[C@@H]2CCCN2C(=O)[C@H]([C@@H](C)CC)NC(=O)[C@H](CO)NC(=O)[C@H](C)NC(=O)[C@H]([C@@H](C)O)NC(=O)[C@H](CCC(=O)O)NC1=O [Example 25] (cyclo([Gly(octyl)]ETASIPPQKT[dY]K))", 4.38],
  ["CCCCCCCC[C@@H]1NC(=O)[C@@H]2CCCN2C(=O)[C@H]2CCCN2C(=O)[C@H](CCCC(N)=O)NC(=O)[C@H](CCCCN)NC(=O)[C@H](CCC(N)=O)NC(=O)[C@@H]2CCCN2C(=O)[C@@H]2CCCN2C(=O)[C@H]([C@@H](C)CC)NC(=O)[C@H](CO)NC(=O)[C@H](C)NC(=O)[C@H]([C@@H](C)O)NC(=O)[C@H](CCC(=O)O)NC1=O [Example 5] (cyclo([Gly(octyl)]ETASIPPQK[Aad](NH2)[dP]P))", 5.63],
  ["CCCCCCCC[C@@H]1NC(=O)[C@@H]2CCCN2C(=O)[C@H]2CCCN2C(=O)[C@H](CN)NC(=O)[C@H](CCCCN)NC(=O)[C@H](CCC(N)=O)NC(=O)[C@@H]2CCCN2C(=O)[C@@H]2CCCN2C(=O)[C@H]([C@@H](C)CC)NC(=O)[C@H](CO)NC(=O)[C@H](C)NC(=O)[C@H]([C@@H](C)O)NC(=O)[C@H](CCC(=O)O)NC1=O [Example 2] (cyclo([Gly(octyl)]ETASIPPQK[Dap][dP]P))", 5.45],
  ["CCCCCCCC[C@@H]1NC(=O)[C@H](Cc2ccc(O)cc2)NC(=O)[C@@H](CCCCN)NC(=O)[C@H]([C@@H](C)O)NC(=O)[C@H](CCCCN)NC(=O)[C@H](CCC(N)=O)NC(=O)[C@@H]2CCCN2C(=O)[C@@H]2CCCN2C(=O)[C@H]([C@@H](C)CC)NC(=O)[C@H](CO)NC(=O)[C@H](C)NC(=O)[C@H]([C@@H](C)O)NC(=O)[C@H](CCC(=O)O)NC1=O [Example 27] (cyclo([Gly(octyl)]ETASIPPQKT[dK]Y))", 4.40],
  ["CCCCCCCC[C@@H]1NC(=O)[C@@H]2CCCN2C(=O)[C@H]2CCCN2C(=O)[C@H]([C@@H](C)O)NC(=O)[C@H](CCCCN)NC(=O)[C@H](CCC(N)=O)NC(=O)CN(CCCCN)C(=O)[C@@H]2CCCN2C(=O)[C@H]([C@@H](C)CC)NC(=O)[C@H](CO)NC(=O)[C@H](C)NC(=O)[C@H]([C@@H](C)O)NC(=O)[C@H](CCC(=O)O)NC1=O [Example 35] (cyclo([Gly(octyl)]ETASIP[Nlys]QKT[dP]P))", 5.82],
  ["CCCCCCCC(=O)NCC[C@@H]1NC(=O)[C@@H]2CCCN2C(=O)[C@H]2CCCN2C(=O)[C@H]([C@@H](C)O)NC(=O)[C@H](CCCCN)NC(=O)[C@H](CCC(N)=O)NC(=O)[C@@H]2CCCN2C(=O)[C@@H]2CCCN2C(=O)[C@H]([C@@H](C)CC)NC(=O)[C@H](CO)NC(=O)[C@H](C)NC(=O)[C@H]([C@@H](C)O)NC(=O)[C@H](CCC(=O)O)NC1=O [Example 15] (cyclo([Dab](Octanoyl)ETASIPPQKT[dP]P))", 4.34]
]}

// assay UniProt P24158, entry CCCCCCCC[C@@H]1NC(=O)[C@@H]2CCCN2C(=O)[C@H]2CCCN2C(=O)[C@H](CCO)NC(=O)[C@H](CCCCN)NC(=O)[C@H](CCC(N)=O)NC(=O)[C@@H]2CCCN2C(=O)[C@@H]2CCCN2C(=O)[C@H]([C@@H](C)CC)NC(=O)[C@H](CO)NC(=O)[C@H](C)NC(=O)[C@H]([C@@H](C)O)NC(=O)[C@H](CCC(=O)O)NC1=O [Example 4] (cyclo([Gly(octyl)]ETASIPPQK[hSer][dP]P)) , pIC50 value = 5.99

// assay UniProt P24158, entry CCCCCCCC[C@@H]1NC(=O)[C@@H]2CCCN2C(=O)[C@H]2CCCN2C(=O)[C@H]([C@@H](C)O)NC(=O)[C@H](CCCCN)NC(=O)[C@H](CCC(N)=O)NC(=O)[C@@H]2CCCN2C(=O)CN(CCC(=O)O)C(=O)[C@H]([C@@H](C)CC)NC(=O)[C@H](CO)NC(=O)[C@H](C)NC(=O)[C@H]([C@@H](C)O)NC(=O)[C@H](CCC(=O)O)NC1=O [Example 7] (cyclo([Gly(octyl)]ETASI[N(CH2CH2COOH)Gly]PQKT[dP]P)) , pIC50 value = 5.39
